- METHOD DESCRIPTION: Pharmacokinetics, single oral gavage, 2 formulations, Wistar and Sprague-Dawley rats
- Format: in vivo
- APPLIED CONDITIONS: female, Wistar, rat, plasma, po, 15 mg/kg, Formulation 2, Wistar (Female)
OBSERVED PROPERTY: half-life (h)
One number for each entry, in h.

IN: half-life for Cc1cc(Cl)c(COc2cccc3c(-n4cc(F)cn4)cc(C)nc23)c(Cn2cccc(C#N)c2=O)n1 [CFMQ] ?
OUT: 6.08

====

- METHOD DESCRIPTION: Pharmacokinetics, single oral gavage, 2 formulations, Wistar and Sprague-Dawley rats
- Format: in vivo
- APPLIED CONDITIONS: female, Sprague-Dawley, rat, plasma, po, 75 mg/kg, Formulation 2, S-D (Female)
OBSERVED PROPERTY: Cmax (ng/mL)
Give bare numbers, in ng/mL.

IN: Cmax for Cc1cc(Cl)c(COc2cccc3c(-n4cc(F)cn4)cc(C)nc23)c(Cn2cccc(C#N)c2=O)n1 [CFMQ] ?
OUT: 2180

Every entry's value here was drawn from patent US20160030416A1.
